Reference source: paper PMC7961380

tested on: pooled human cryopreserved hepatocytes (pHHeps); assay: Metabolic stability, pooled human cryopreserved hepatocyte incubations; conditions: from pHHeps incubations
The following compounds are shown together with reported Hepatic extraction ratio, EH values.

Compound	Tgt	Hepatic extraction ratio, EH
COC(=O)[C@H](NC(=O)c1cn(CCCCCF)c2ccccc12)C(C)(C)C [(R)-5F-MDMB-PICA (3)]	pooled human cryopreserved hepatocytes (pHHeps)	0.30
C=CCCCn1cc(C(=O)N[C@H](C(=O)OC)C(C)C)c2ccccc21 [(S)-AMB-4en-PICA (7)]	pooled human cryopreserved hepatocytes (pHHeps)	0.74
COC(=O)[C@H](NC(=O)c1nn(CCCCCF)c2ccccc12)C(C)(C)C [(R)-5F-MDMB-PINACA (2)]	pooled human cryopreserved hepatocytes (pHHeps)	0.39
C=CCCCn1nc(C(=O)N[C@H](C(=O)OC)C(C)(C)C)c2ccccc21 [(S)-MDMB-4en-PINACA (5)]	pooled human cryopreserved hepatocytes (pHHeps)	0.24
COC(=O)[C@H](NC(=O)c1nn(CCCCF)c2ccccc12)C(C)(C)C [(R)-4F-MDMB-BINACA (4)]	pooled human cryopreserved hepatocytes (pHHeps)	0.42
COC(=O)[C@@H](NC(=O)c1cn(CC2CCCCC2)c2ccccc12)C(C)C [(S)-AMB-CHMICA (9)]	pooled human cryopreserved hepatocytes (pHHeps)	0.37
C=CCCCn1cc(C(=O)N[C@@H](C(=O)OC)C(C)(C)C)c2ccccc21 [(R)-MDMB-4en-PICA (12)]	pooled human cryopreserved hepatocytes (pHHeps)	0.31
C=CCCCn1nc(C(=O)N[C@@H](C(=O)OC)C(C)(C)C)c2ccccc21 [(R)-MDMB-4en-PINACA (5)]	pooled human cryopreserved hepatocytes (pHHeps)	0.25

* * *

The following molecules are shown together with reported PPB (%) values.
test: Plasma protein binding by equilibrium dialysis; type: in vitro ADME, human; settings: equilibrium dialysis 5 h, 37 °C, 10 µg mL^−1

Molecule	PPB (%)
COC(=O)[C@@H](NC(=O)c1nn(CCCCCF)c2ccccc12)C(C)(C)C [(S)-5F-MDMB-PINACA (2)]	97.8
C=CCCCn1cc(C(=O)N[C@@H](C(=O)OC)C(C)(C)C)c2ccccc21 [(R)-MDMB-4en-PICA (12)]	94.7
COC(=O)[C@@H](NC(=O)c1nn(CCCCF)c2ccccc12)C(C)(C)C [(S)-4F-MDMB-BINACA (4)]	93.9
COC(=O)[C@H](NC(=O)c1cn(CCCCCF)c2ccccc12)C(C)(C)C [(R)-5F-MDMB-PICA (3)]	93.8

* * *

The following compounds are shown together with reported Hepatic extraction ratio, EH values.
system: pooled human cryopreserved hepatocytes (pHHeps); experiment: Metabolic stability, pooled human cryopreserved hepatocyte incubations; conditions: from pHHeps incubations
Measured metric: Hepatic extraction ratio, EH

Compound	Recorded result
COC(=O)[C@@H](NC(=O)c1nn(CCCCCF)c2ccccc12)C(C)(C)C [(S)-5F-MDMB-PINACA (2)]	0.38
C=CCCCn1cc(C(=O)N[C@@H](C(=O)OC)C(C)C)c2ccccc21 [(R)-AMB-4en-PICA (7)]	0.80
COC(=O)[C@@H](NC(=O)c1cn(CCCCCF)c2ccccc12)C(C)(C)C [(S)-5F-MDMB-PICA (3)]	0.37
COC(=O)[C@@H](NC(=O)c1nn(CCCCF)c2ccccc12)C(C)(C)C [(S)-4F-MDMB-BINACA (4)]	0.58
C=CCCCn1cc(C(=O)N[C@H](C(=O)OC)C(C)(C)C)c2ccccc21 [(S)-MDMB-4en-PICA (12)]	0.26
CC(C)[C@H](NC(=O)c1nn(CC2CCCCC2)c2ccccc12)C(N)=O [(S)-AB-[…] (11)]	0.22
CC(C)[C@H](NC(=O)c1nn(Cc2ccc(F)cc2)c2ccccc12)C(N)=O [(S)-AB-FUBINACA (8)]	0.10
COC(=O)[C@@H](NC(=O)c1nn(Cc2ccc(F)cc2)c2ccccc12)C(C)C [(S)-AMB-FUBINACA (1)]	0.74
